# MEASUREMENT TARGET: Platelet-activating factor receptor (Oryctolagus cuniculus)
# METHOD NOTES: Inhibition of [3H]PAF binding to rabbit platelet membranes
Consider the following compounds; for each one, report its pKi.
Numbers only, as −log10 of the molar value.

- O=C(c1ccccc1)c1cccc(NC(=O)[C@@H]2CSC(c3cccnc3)N2)c1 (stereo not given in full): 8.30

Hi there! I need pKi for each item below, if you can.
1. O=C(c1ccccc1)c1cccc(NC(=O)[C@@H]2OC(=O)N3[C@@H](c4cccnc4)SC[C@@H]23)c1
2. O=C(c1ccccc1)c1cccc(NC(=O)[C@H]2OC(=O)N3[C@@H](c4cccnc4)SC[C@@H]23)c1
3. O=C(c1ccccc1)c1cccc(NC(=O)[C@@H]2OC(=O)N3[C@H](c4cccnc4)SC[C@@H]23)c1
4. O=C(c1ccccc1)c1cccc(NC(=O)[C@H]2OC(=O)N3[C@H](c4cccnc4)SC[C@@H]23)c1

5.92
7.62
5.60
6.82

meta.source: BindingDB's records for doi:10.1016/S0960-894X(01)80753-8
